Biological target: T1, recombinant cynomolgus monkey LIGHT, FLAG-tagged extracellular domain (cynomolgus (Macaca fascicularis), UniProt E9NVF7 59-240)
T1 construct: extracellular domain; also called cynomolgus LIGHT; cyno LIGHT
T1 sequence (E9NVF7 entry or part of it): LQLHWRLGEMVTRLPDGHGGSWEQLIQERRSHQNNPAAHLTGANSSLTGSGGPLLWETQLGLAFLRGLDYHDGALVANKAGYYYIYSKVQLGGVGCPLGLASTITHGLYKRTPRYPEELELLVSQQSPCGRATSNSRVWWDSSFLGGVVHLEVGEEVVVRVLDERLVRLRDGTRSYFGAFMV
Assay: SPR ProteOn, mAb captured on anti-mouse IgG, LIGHT 256 nM, 25 C, apparent affinity
Observable: Kd (nM)
// return numeric value only (unit: nM, not printed)

Exam item: Any idea what Kd was measured for 14B09 (purified from hybridoma supernatant) (antibody, V domains shown, Murine constant / human variable chimeric IgG, lambda, Protein G purified from hybridoma supernatant) VH: QVQLVQSGAEVKKPGASVKVSCRASGYTFTSYLMHWVRQAPGQRLEWMGWINVGNGNTKYSQKFQGRVTITRDTSASTAYMELSGLRSEDTAVYYCARNYYNWFDPWGQGTLVTVSS VL: QSALTQPASVSGSPGQSITISCTGTSSDVGGYNYVSWYQQHPGKAPKLMIYDVSKRPSGVSNRFSGSKSGNTASLTISGLQAEDEADYYCFSYAGSSTVVFGGGTKLTVL ?
Marked response: 0.156

Exam item: Item under review: 18E04 (purified from hybridoma supernatant, mouse IgG) (antibody, V domains shown, Murine C / human V chimeric IgG, lambda, purified from hybridoma supernatant) VH: QVLLVQSGAEVKKPGASVKVSCKASGYTFTHFDINWVRQATGQGLEWMGWMNPDSDNTDYAQEFQGRVTMTRDTSISTAYMELSSLRSEDTAVYYCARGGTTLDYWGQGTLVTVSS VL: SYELTQPPSVSVSPGQTARITCSGDALPKKYAYWYQQKSGQAPVLVIYEDSKRPSGIPERFSGSSSGTMATLTISGAQVEDEADYYCYSTDSSDNHVIFGGGTKLTVL . Reported Kd?
Marked response: 3.11
